Data provenance: ChEMBL document CHEMBL1138952

- assay target: Vitamin K-dependent protein C (Homo sapiens, UniProt P04070)
- Sequence (P04070 43-197 limits assumed): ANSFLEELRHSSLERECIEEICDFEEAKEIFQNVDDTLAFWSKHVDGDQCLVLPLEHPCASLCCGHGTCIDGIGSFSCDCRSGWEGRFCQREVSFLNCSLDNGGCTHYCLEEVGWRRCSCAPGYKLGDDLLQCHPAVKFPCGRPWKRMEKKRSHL
- Sequence (P04070 212-461 limits assumed): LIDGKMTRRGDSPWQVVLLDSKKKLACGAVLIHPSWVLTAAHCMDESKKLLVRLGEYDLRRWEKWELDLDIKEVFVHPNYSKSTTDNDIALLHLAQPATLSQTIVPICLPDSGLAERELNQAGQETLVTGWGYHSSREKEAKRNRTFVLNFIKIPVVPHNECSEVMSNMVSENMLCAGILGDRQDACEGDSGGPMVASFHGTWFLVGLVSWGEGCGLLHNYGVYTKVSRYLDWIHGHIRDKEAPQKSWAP
quantity measured: pKi
# pKi = -log10(concentration in molar units)

Query: Could you tell me which pKi is on file for COc1ccc(-n2nc(C#N)c3ncn(-c4ccc(-c5ccccc5CN5CCCC5)cc4)c(=O)c32)cc1 ?
Result: 4.31

----------
List of 2PT values.
- assay target: Coagulation factor VII/tissue factor (Homo sapiens) (UniProt P08709+P13726)
- procedure text: Activity in human plasma by PT assay
- Type: functional, cell-free

Below: 5 molecules and their reported 2PT.
Query: Find 2PT (Coagulation factor VII/tissue factor (Homo sapiens) (UniProt P08709+P13726)) for the entry CN(C)Cc1nccn1-c1ccc(NC(=O)c2cc(C(F)(F)F)nn2-c2ccc3onc(N)c3c2)c(F)c1.Cl [RAZAXABAN HYDROCHLORIDE]
Result: 2.1 µM

Query: Find 2PT (Coagulation factor VII/tissue factor (Homo sapiens) (UniProt P08709+P13726)) for the entry COc1ccc(-n2nc(C(N)=O)c3ncn(-c4ccc(-c5ccccc5CN5CCCC5)cc4)c(=O)c32)cc1
Result: 2.2 µM

Query: Find 2PT (Coagulation factor VII/tissue factor (Homo sapiens) (UniProt P08709+P13726)) for the entry COc1ccc(-n2nc(C(N)=O)c3ncn(-c4ccc(-c5ccccc5CN5CC[C@@H](O)C5)cc4)c(=O)c32)cc1
Result: 3.6 µM

Query: Find 2PT (Coagulation factor VII/tissue factor (Homo sapiens) (UniProt P08709+P13726)) for the entry COc1ccc(-n2nc(C(N)=O)c3ncn(-c4ccc(-c5ccccc5CN5CCCC5)cc4F)c(=O)c32)cc1
Result: 3.4 µM

Query: Find 2PT (Coagulation factor VII/tissue factor (Homo sapiens) (UniProt P08709+P13726)) for the entry COc1ccc(-n2nc(Cn3ncnn3)c3nc(C)n(-c4ccc(-c5ccccc5CN5CCCC5)cc4)c(=O)c32)cc1
Result: 6.5 µM

Further cases:
Query: Find 2PT (Coagulation factor VII/tissue factor (Homo sapiens) (UniProt P08709+P13726)) for the entry COc1ccc(-n2nc(C(F)(F)F)c3c(C)nn(-c4ccc(-c5ccccc5CN5CCCC5)cc4)c(=O)c32)cc1
Result: 62 µM

----------
- assay target: Coagulation factor X (Homo sapiens)
- Sequence (P00742 41-179 limits assumed): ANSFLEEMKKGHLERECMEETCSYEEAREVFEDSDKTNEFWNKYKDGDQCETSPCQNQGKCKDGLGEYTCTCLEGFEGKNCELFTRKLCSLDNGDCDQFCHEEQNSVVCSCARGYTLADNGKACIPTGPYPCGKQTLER
- Sequence (P00742 235-488 limits assumed): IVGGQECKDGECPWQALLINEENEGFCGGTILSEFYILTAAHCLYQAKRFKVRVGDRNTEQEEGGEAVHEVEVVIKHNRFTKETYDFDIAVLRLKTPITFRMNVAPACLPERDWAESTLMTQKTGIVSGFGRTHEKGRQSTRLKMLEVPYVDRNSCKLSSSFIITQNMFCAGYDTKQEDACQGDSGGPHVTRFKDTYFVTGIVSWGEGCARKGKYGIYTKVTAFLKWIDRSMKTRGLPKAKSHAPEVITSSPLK
List of Ki values.
Report the value in nM with no unit label.

Below: 3 compounds and their reported Ki.
Query: Could you tell me which Ki is on file for COc1ccc(-n2nc(Cn3ncnn3)c3nc(C)n(-c4ccc(-c5ccccc5CN5CCCC5)cc4)c(=O)c32)cc1 ?
Result: 1.9

Query: Could you tell me which Ki is on file for COC(=O)c1nn(-c2ccc(OC)cc2)c2c(=O)n(-c3ccc(-c4ccccc4S(N)(=O)=O)cc3F)cnc12 ?
Result: 1.8

Query: Could you tell me which Ki is on file for COc1ccc(-n2nc(Cn3ccnc3)c3nc(C)n(-c4ccc(-c5ccccc5CN5CCCC5)cc4)c(=O)c32)cc1 ?
Result: 2.1

Now consider a different compound.
Query: Could you tell me which Ki is on file for COc1ccc(-n2nc(C#N)c3nc(C)n(-c4ccc(-c5ccccc5CN(C)C)cc4)c(=O)c32)cc1 ?
Result: 1.8
